biological target: KIT-D816H (Homo sapiens, UniProt P10721, D816H); assay: Activity-based HTRF KinEASE assay, KIT-D816H; type: biochemical; settings: mean ± s.d., n ≥ 3; ATP at KM (12 µM); read-out: HTRF IC50 KIT-D816H
Sequence (P10721 26-976 D816H): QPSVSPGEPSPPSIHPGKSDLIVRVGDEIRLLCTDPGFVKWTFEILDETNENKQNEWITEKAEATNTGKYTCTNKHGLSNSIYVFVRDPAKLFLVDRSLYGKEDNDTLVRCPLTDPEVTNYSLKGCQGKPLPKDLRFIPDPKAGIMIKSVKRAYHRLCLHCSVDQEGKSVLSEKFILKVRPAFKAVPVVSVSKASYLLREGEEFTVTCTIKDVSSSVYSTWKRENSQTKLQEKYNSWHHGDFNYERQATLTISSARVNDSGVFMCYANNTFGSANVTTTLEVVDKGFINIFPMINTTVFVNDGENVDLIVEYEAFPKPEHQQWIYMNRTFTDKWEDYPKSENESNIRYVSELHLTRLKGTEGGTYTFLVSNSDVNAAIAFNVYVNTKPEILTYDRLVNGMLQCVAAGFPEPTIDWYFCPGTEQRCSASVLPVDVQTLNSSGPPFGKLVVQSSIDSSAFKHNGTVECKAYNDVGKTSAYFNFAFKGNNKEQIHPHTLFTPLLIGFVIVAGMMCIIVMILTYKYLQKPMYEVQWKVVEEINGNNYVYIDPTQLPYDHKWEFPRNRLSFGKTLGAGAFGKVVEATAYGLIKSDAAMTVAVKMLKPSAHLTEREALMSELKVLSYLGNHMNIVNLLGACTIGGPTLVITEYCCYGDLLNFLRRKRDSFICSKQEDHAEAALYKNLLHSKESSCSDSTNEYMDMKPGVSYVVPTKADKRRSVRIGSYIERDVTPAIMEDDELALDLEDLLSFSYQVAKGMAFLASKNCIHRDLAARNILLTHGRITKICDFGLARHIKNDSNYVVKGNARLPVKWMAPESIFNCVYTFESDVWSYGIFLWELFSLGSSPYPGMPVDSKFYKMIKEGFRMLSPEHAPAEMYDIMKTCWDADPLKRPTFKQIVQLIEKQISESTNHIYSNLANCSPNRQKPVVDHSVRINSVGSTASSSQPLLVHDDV
Recorded IC50 by entry
Just the number please, in nM, no unit attached.

- CC(=O)N[C@@](C)(c1ccc(F)cc1)c1cnc(N2CCN(c3ncnn4cc(-c5cnn(C)c5)cc34)CC2)nc1: 0.5
- Cn1cc(-c2cc3c(N4CCN(c5ncc([C@@](C)(NC(=O)c6ccccc6)c6ccc(F)cc6)cn5)CC4)ncnn3c2)cn1: 2
- Cn1cc(-c2cc3c(Cl)ncnn3c2)cn1: 9300
- COC(=O)N[C@@](C)(c1ccc(F)cc1)c1cnc(N2CCN(c3ncnn4cc(-c5cnn(C)c5)cc34)CC2)nc1: 0.6
- Cn1cc(-c2cc3c(N4CCNCC4)ncnn3c2)cn1: 1540

For KIT-D816H (Homo sapiens, UniProt P10721, D816H), give IC50 of the listed compound: C=CC(=O)N[C@@](C)(c1ccc(F)cc1)c1cnc(N2CCN(c3ncnn4cc(-c5cnn(C)c5)cc34)CC2)nc1
0.5

For KIT-D816H (Homo sapiens, UniProt P10721, D816H), give IC50 of the listed compound: Cn1cc(-c2cc3c(N4CC5(CN(c6ncc(Cc7ccccc7)cn6)C5)C4)ncnn3c2)cn1
2160

For KIT-D816H (Homo sapiens, UniProt P10721, D816H), give IC50 of the listed compound: CCN[C@@](C)(c1ccc(F)cc1)c1cnc(N2CCN(c3ncnn4cc(-c5cnn(C)c5)cc34)CC2)nc1
0.4

For KIT-D816H (Homo sapiens, UniProt P10721, D816H), give IC50 of the listed compound: Cn1cc(-c2cc3c(N4CCC5(CC4)CN(c4ncc(Cc6ccccc6)cn4)C5)ncnn3c2)cn1
204

For KIT-D816H (Homo sapiens, UniProt P10721, D816H), give IC50 of the listed compound: CN(C)[C@@](C)(c1ccc(F)cc1)c1cnc(N2CCN(c3ncnn4cc(-c5cnn(C)c5)cc34)CC2)nc1
2.3

For KIT-D816H (Homo sapiens, UniProt P10721, D816H), give IC50 of the listed compound: Cn1cc(-c2cc3c(N4CCN(c5ncccn5)CC4)ncnn3c2)cn1
76
